Can you tell me viability at 28.5 h, 10 µM for the items I'm about to list?
# Assay name: in vitro
# Experimental conditions: human, hela cells, % viability
Respond with the bare value in %.

Which viability at 28.5 h, 10 µM is reported for this molecule? CCOc1ccccc1CN1CC2CCCN2C[C@@H]1C (some centres unmarked) [CBK285435]
94.7

Another molecule to check: COC(=O)c1ccsc1NS(=O)(=O)c1ccc(NC(C)=O)cc1 [CBK039063]
87.7

Another molecule to check: Nc1ncc(-c2cccc3ccccc23)nc1NCc1ccccc1 [CBK063565]
99

Another molecule to check: CC[C@H]1CN(S(=O)(=O)c2c(C)noc2C)CC[C@H]1CC(=O)Nc1nccs1 [CBK288779]
88.3

Another molecule to check: CCNC(=O)N1CC2(CCN(CCSC)CC2)c2ccccc21 [CBK126709]
101

Another molecule to check: COCc1ccc(-c2nccnc2NS(C)(=O)=O)cc1 [CBK049631]
101

Another molecule to check: CCOC(=O)N1N=C(c2ccc(F)cc2)CC1(O)C(F)(F)F (centres unmarked) [CBK027156]
111

Another molecule to check: CCCc1cc(C(=O)N2CCN(c3nccc(OC)n3)CC2)[nH]n1 [CBK304898]
87

Another molecule to check: COc1ncccc1CNC(=O)Nc1cccn(CC(F)(F)F)c1=O [CBK305216]
113

Another molecule to check: Cc1ccc(NC2C=CS(=O)(=O)C2)cc1 (centres unmarked) [CBK057487]
89.5

Another molecule to check: COC(=O)CN1CCCC[C@H]2CN(C(=O)C3CCC3)C[C@H]21 [CBK285496]
103

Another molecule to check: CN(C)CCN(C)c1cncc(-c2ccc3c(c2)OCO3)n1 [CBK065897]
101

Another molecule to check: CC(C)(C)OC(=O)N1Cc2c(-c3noc(C4CC4)n3)ncn2-c2ccc(Cl)cc21 [CBK007792]
90.2

Another molecule to check: CCOc1ccc(NC(=O)CSc2nc3nc(C)cc(C)n3n2)cc1 [CBK268278]
107

Another molecule to check: CC(C)(C)C(=O)N[C@H]1C[C@@H](Cc2cc(CN3CCOCC3)on2)C1(C)C [CBK289247]
96.2

Another molecule to check: NCCCNc1ccc(-c2ccco2)cn1 [CBK036911]
100

Another molecule to check: O=C(O)c1ccccc1-c1ccccc1C(=O)NCCc1ccccc1 [CBK263394]
113

Another molecule to check: O=C(Nc1nc2ccccc2[nH]1)C1c2ccccc2Oc2ccccc21 [CBK265454]
98.9

Another molecule to check: Cn1nc(NC(=O)CN2CCOC2=O)c2c(N3CCOCC3)cccc21 [CBK306830]
102

Another molecule to check: COc1cccc2c1cc(C(=O)NCc1cc(C3CC3)[nH]n1)n2C [CBK283282]
80.4

---

Can you tell me viability at 28.5 h, 10 µM for the items I'm about to list?
# Assay name: in vitro
# Experimental conditions: human, hela cells, % viability
Write the numeric value and follow it with the unit.

Which viability at 28.5 h, 10 µM is reported for this compound? COCCC(=O)N1C[C@@H](c2cccc(F)c2)[C@@]2(CCCC(=O)N2)C1
88.1%

Another compound to check: OCC1CCCN1c1nccnc1-c1ccoc1 (stereo not drawn)
105%

Another compound to check: COc1cccc(N2CCC(=O)N2)c1
87%

Another compound to check: O=C(/C=C/c1ccccc1[N+](=O)[O-])NCCN1CCOCC1
97.8%

Another compound to check: C[C@@H](Nc1cncc(-c2ccncc2)n1)c1ccccc1
90%

Another compound to check: CCOC1=NCCN2CCc3cccc1c32
117%

---

Can you tell me viability at 28.5 h, 0.00375 µM for the items I'm about to list?
# Assay name: in vitro
# Design: Viability of infected HeLa host cells, resazurin conversion, bulk resorufin fluorescence relative to DMSO
# Experimental conditions: human, hela cells; bulk resorufin, mean of 3
Respond with the bare value in %.

Which viability at 28.5 h, 0.00375 µM is reported for this compound? COc1ccc(CC(=O)N2CCCC(c3nc(C)c4c(n3)N(CC3CC3)CCC4)C2)cc1 (stereo not drawn) [c52e]
88.5

Another compound to check: CC1=C(C)C(=NNC(N)=S)C(C)=C(C)C1=NNC(N)=S [c19e]
109

Another compound to check: COc1ccc(C2CC(=O)C=C(Nc3cc(Cl)ccc3O)C2)cc1 (stereo not drawn) [c24e]
94.1

Another compound to check: COCC(=O)N[C@H]1C[C@H]2C(=O)Nc3ccc(/C=C/c4ccccc4)cc3C(=O)N2C1 [c25e]
99.5

Another compound to check: c1c(C2CC2)[nH]c2nc(N3CCCC3)nc(N3CCCC3)c12
86.7

Another compound to check: O=C1C(NCCO)=C(Nc2cccc(Cl)c2)C(=O)c2ccccc21 [c45e]
91

Another compound to check: Fc1cc(Br)c(CNCc2ncc[nH]2)c(N2CCCCC2)c1F [c31e]
98.4

Another compound to check: CCC1C(c2ccc(C)cc2)=CCC(C(=O)NCCCN(C)C)C1C (stereo not drawn) [c30e]
91.6

Another compound to check: COc1ccc([C@@H]2CN(C)C[C@H]2NC(=O)Nc2ccc(Cl)c(Cl)c2)cc1OC [c39e]
92.6

---

Can you tell me viability at 28.5 h, 10 µM for the items I'm about to list?
# Assay name: in vitro
# Experimental conditions: human, hela cells, % viability
Respond with the bare value in %.

Which viability at 28.5 h, 10 µM is reported for this molecule? CC(C)(C)SCCNS(=O)(=O)c1ccc(Cl)c(Cl)c1 [CBK057015]
92.1

Another molecule to check: Cc1ccc(-c2cc(C(=O)NCc3ccc(F)cc3Cl)n[nH]2)cc1 [CBK288102]
85.6

Another molecule to check: Cc1cccc(=O)n1CCCNc1cc(C2CCOC2)ncn1 (stereo not drawn) [CBK306992]
84.4

Another molecule to check: Cc1cccc(C)c1OCC(=O)Nc1ccccc1C(=O)N1CCOCC1 [CBK270096]
91.2

Another molecule to check: O=C1N[C@@H]2CCN(C(=O)Cc3ccc(O)cc3)C[C@@H]2C/C=C/CCOc2ccccc21 [CBK292043]
103

Another molecule to check: Cc1cc(C2CCCCCN2C(=O)c2ccc(F)cc2)on1 (stereo not drawn) [CBK285447]
106

Another molecule to check: Fc1ccc(OCCN2CCC3(C2)OCCc2c3[nH]c3ccccc23)cc1 (stereo not drawn) [CBK061787]
86.7

Another molecule to check: Cc1ccc2c(c1)OC(C)(C)CC2NC(=O)C1CCN(C)CC1 (stereo not drawn) [CBK307626]
110

Another molecule to check: CCOC(=O)C1(C2CCCCC2)CCN(C(=O)Cc2ccc(Cl)c(Cl)c2)CC1 [CBK136922]
95.2

---

# Assay name: in vitro
# Experimental conditions: human, hela cells, % viability
Can you tell me viability at 28.5 h, 10 µM for the items I'm about to list?
Respond with the bare value in %.

Which viability at 28.5 h, 10 µM is reported for this molecule? Cc1n[nH]c2c1C(c1ccc(C(=O)O)cc1)C1=C(COC1=O)N2 (stereo not shown)
94.7

Another molecule to check: N#Cc1ccc(C(=O)Nc2nnc(-c3ccccn3)o2)cc1
100

Another molecule to check: C=CCOc1nc2c(=O)[nH]c(/N=C/N(C)C)nc2n1C1CC(O)C(CO)O1 (stereo not shown)
93.3

Another molecule to check: Cc1cc(COC(=O)c2nn(-c3ccc(F)cc3)c3c2CCCC3)on1
105

Another molecule to check: Cc1nn(C(C)CC(=O)N2CCCC(CN(C)C)C2)c(C)c1Cl (stereo not shown)
107

Another molecule to check: COc1ccc(-c2csc(Nc3ccc(S(=O)(=O)Nc4cc(C)on4)cc3)n2)cc1OC [CBK261797B]
95.3

Another molecule to check: C=CCn1c2cc(C)sc2c2cnn(CC(=O)OCC)c(=O)c21
82.9

Another molecule to check: COc1cc(CN2CCCCC2CO)c([N+](=O)[O-])cc1OC (stereo not shown)
85.1

Another molecule to check: CSc1ncc(CNC(=O)Nc2ccc3c(c2)CCC3)n1C
107

Another molecule to check: COCCSc1ccccc1C(=O)Nc1ccc(S(N)(=O)=O)cc1
83.2

Another molecule to check: CN(C)CC(C)(C)CNC(=O)c1cnc2cc(Cl)ccc2c1O
97

Another molecule to check: COC(=O)CNC(c1ccccc1)c1cc(Br)ccc1NC(C)=O (stereo not shown)
119

Another molecule to check: CN1CCC(N(C)S(=O)(=O)c2ccc(C(C)(C)C)cc2)C1 (stereo not shown) [CBK059036T]
98.5

Another molecule to check: FC(F)(F)c1ccc(CN2CCN(c3nccnc3OCc3cccnc3)CC2)cc1 [CBK083133T]
101

Another molecule to check: Nc1nn2c(c1Cc1c(Cl)cccc1Cl)OC(=O)CCC2=O
113

Another molecule to check: Cc1ccc2cc(S(=O)(=O)NCCCC(=O)O)ccc2c1
95.8

Another molecule to check: CNC(=O)C1(Cc2ccc(-c3cccc(C)c3)cc2)CCN(C(=O)CC(C)(C)C)CC1
86.4

Another molecule to check: O=C(O)C1CSC(c2cccc(Cl)c2Cl)N1 (stereo not shown)
106

Another molecule to check: Cc1oc(-c2ccccc2)nc1CCOc1ccc(NC(=O)c2ccc(Cl)cc2Cl)c(C(=O)O)c1 [CBK000168D]
88.6

All figures here come from paper PMC12040169.
